The measured values listed here are drawn from patent US8883798B2.

Recorded melting point, one value per entry.

[
  {
    "COMPOUND": "O=CNc1nc(Cl)c(-c2ccccc2)c(Cl)n1",
    "REPORTED": "95 to 96 °C"
  }
]

Lab book: melting point of CCCc1c(Cl)nc(N)nc1Cl noted as 182 to 183 °C

Entry under test: CCCCc1c(Cl)nc(N(C)C)nc1Cl . Its melting point was 42 to 45 °C

response.value for CCC(C)c1c(Cl)nc(N)nc1Cl (stereo not drawn) (field: melting point) = 159 to 160 °C

The measured melting point associated with CCCCc1c(Cl)nc(/N=C/N(C)C)nc1Cl reads 65 to 67 °C

Lookup result for CCCCc1c(Cl)nc(N)nc1-c1cccnc1 ; measured melting point: 189 to 190 °C

----------
Test system: production of nitric oxide (NO)
ASSAY INFO: Production of nitric oxide (NO) in cultures of mouse peritoneal cells stimulated with IFN-γ plus LPS (Griess reagent)
Format: cell-based, mice
CONDITIONS USED: Table 3B; substance 50 μmol·l^−1; IFN-g plus LPS; 24 h
# reported Production of nitric oxide in % of the controls; entries follow

Solved cases below.
[
  {
    "SMILES REPR": "CCCCc1c(-c2ccccc2)nc(N)nc1-c1cccnc1",
    "REPORTED": "52.81 ± 2.91; n = 4 % of the controls"
  },
  {
    "SMILES REPR": "CCCCc1c(-c2ccc(F)cc2)nc(N)nc1-c1cccs1",
    "REPORTED": "48.59 ± 10.92; n = 3 % of the controls"
  },
  {
    "SMILES REPR": "CCCCc1c(-c2ccncc2)nc(N)nc1-c1cc2ccccc2s1",
    "REPORTED": "63.94 ± 1.84 n = 4 % of the controls"
  },
  {
    "SMILES REPR": "CCCCc1c(-c2ccccn2)nc(N)nc1-c1cc2ccccc2o1",
    "REPORTED": "56.53 ± 3.33; n = 8 % of the controls"
  }
]

According to the records, this compound CCCCc1c(-c2ccccn2)nc(N)nc1-c1cccs1 displays Production of nitric oxide in % of the controls of 19.62 ± 4.08; n = 6 % of the controls

// CCCCc1c(Cl)nc(N)nc1-c1ccccc1 : Production of nitric oxide in % of the controls value = 27.78 ± 2.11; n = 4 % of the controls

The recorded Production of nitric oxide in % of the controls for CCCCc1c(-c2ccc(F)cc2)nc(N)nc1-c1ccc(F)cc1 is 87.03 ± 3.75; n = 4 % of the controls

----------
Test system: peritoneal cells of mice
ASSAY INFO: Cell viability of mouse peritoneal cells (WST-1 kit)
Type: cell-based
CONDITIONS USED: Table 3B, substance 50 μmol·l^−1, 24 h
Let's look at some compounds and their measured Cell viabilities in % of the controls.

Solved cases below.
[
  {
    "SMILES REPR": "CCCCc1c(-c2ccccc2)nc(N)nc1-c1cccnc1",
    "Cell viabilities in % of the controls": "78.08 ± 5.20; n = 4 % of the controls"
  },
  {
    "SMILES REPR": "CCCCc1c(Cl)nc(N)nc1-c1cccs1",
    "Cell viabilities in % of the controls": "74.47 ± 0.81; n = 4 % of the controls"
  },
  {
    "SMILES REPR": "CCCCc1c(-c2ccncc2)nc(N)nc1-c1cccs1",
    "Cell viabilities in % of the controls": "81.38 ± 6.86; n = 4 % of the controls"
  },
  {
    "SMILES REPR": "CCCCc1c(-c2cccnc2)nc(N)nc1-c1cccs1",
    "Cell viabilities in % of the controls": "69.80 ± 6.79; n = 4 % of the controls"
  },
  {
    "SMILES REPR": "CCCCc1c(-c2ccncc2)nc(N)nc1-c1cccc2ccccc12",
    "Cell viabilities in % of the controls": "85.07 ± 1.02; n = 4 % of the controls"
  },
  {
    "SMILES REPR": "CCCCc1c(-c2ccco2)nc(N)nc1-c1cc2ccccc2o1",
    "Cell viabilities in % of the controls": "81.66 ± 4.41; n = 8 % of the controls"
  }
]

Record for CCCCc1c(-c2ccc(OC)cc2)nc(N)nc1-c1cccnc1 under target or system peritoneal cells of mice: Cell viabilities in % of the controls reported as 103.13 ± 4.24; n = 8 % of the controls

Tested on peritoneal cells of mice: CCCCc1c(-c2cccnc2)nc(N)nc1-c1cc2ccccc2s1 . Observed Cell viabilities in % of the controls: 79.62 ± 4.12; n = 8 % of the controls

// compound CCCCc1c(-c2ccc(F)cc2)nc(N)nc1-c1ccc(F)cc1 , assay peritoneal cells of mice, Cell viabilities in % of the controls value: 108.03 ± 9.80; n = 4 % of the controls

GET /values?item= CCCCc1c(Cl)nc(N)nc1-c1cccnc1 &system= peritoneal cells of mice returns Cell viabilities in % of the controls: 45.38 ± 2.92; n = 12 % of the controls
